measured-target: α4 integrin on the surface of T cells (Homo sapiens, UniProt P13612)
assay-comment: flow cytometry on cells
readout-name: binding result

NZM variant var1 (light chain CDR2 modified), full human IgG4 (antibody, V domains shown) VH: QVQLVQSGAEVKKPGASVKVSCKASGFNIKDTYIHWVRQAPGQRLEWMGRIDPANGYTKYDPKFQGRVTITADTSASTAYMELSSLRSEDTAVYYCAREGYYGNYGVYAMDYWGQGTLVTVSS VL: DIQMTQSPSSLSASVGDRVTITCKTSQDINKYMAWYQQTPGKAPRLLIHYTKGNQPGIPSRFSGSGSGRDYTFTISSLQPEDIATYYCLQYDNLWTFGQGTKVEIK = binds
NZM variant var4 (light chain CDR2 modified), full human IgG4 (antibody, V domains shown) VH: QVQLVQSGAEVKKPGASVKVSCKASGFNIKDTYIHWVRQAPGQRLEWMGRIDPANGYTKYDPKFQGRVTITADTSASTAYMELSSLRSEDTAVYYCAREGYYGNYGVYAMDYWGQGTLVTVSS VL: DIQMTQSPSSLSASVGDRVTITCKTSQDINKYMAWYQQTPGKAPRLLIHYTKSNQSGIPSRFSGSGSGRDYTFTISSLQPEDIATYYCLQYDNLWTFGQGTKVEIK = binds
Natalizumab (NZM), humanized monoclonal IgG4 antibody to α4 integrins (antibody, V domains shown) VH: QVQLVQSGAEVKKPGASVKVSCKASGFNIKDTYIHWVRQAPGQRLEWMGRIDPANGYTKYDPKFQGRVTITADTSASTAYMELSSLRSEDTAVYYCAREGYYGNYGVYAMDYWGQGTLVTVSS VL: DIQMTQSPSSLSASVGDRVTITCKTSQDINKYMAWYQQTPGKAPRLLIHYTSALQPGIPSRFSGSGSGRDYTFTISSLQPEDIATYYCLQYDNLWTFGQGTKVEIK = binds
